Recorded competition rate by entry
- assayed system: T1, human MSLN-FL-his protein (human, UniProt Q13421 296-580)
- T1 construct: made in HEK293E cells, purified on nickel column; also called hMSLN-FL-his; human MSLN full-length protein; not shown: His tag
- T1 sequence (Q13421 other isoform, or with tags, fused parts or gaps): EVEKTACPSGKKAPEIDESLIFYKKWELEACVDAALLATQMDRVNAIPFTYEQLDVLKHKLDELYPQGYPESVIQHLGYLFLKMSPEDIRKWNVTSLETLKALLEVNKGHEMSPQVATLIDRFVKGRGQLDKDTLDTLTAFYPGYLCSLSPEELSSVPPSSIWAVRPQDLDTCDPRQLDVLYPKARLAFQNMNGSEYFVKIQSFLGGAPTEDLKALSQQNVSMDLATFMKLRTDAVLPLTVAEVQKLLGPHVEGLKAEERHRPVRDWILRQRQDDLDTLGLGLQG
- assay remarks: competitive ELISA; row F1.2.12; note: test concentration or dose not given here
Write the number in % without appending the unit.

binder="S009-F2.16.10 (antibody, human IgG1, kappa, V domains shown, human-murine chimeric antibody, human IgG1/kappa constant regions) VH: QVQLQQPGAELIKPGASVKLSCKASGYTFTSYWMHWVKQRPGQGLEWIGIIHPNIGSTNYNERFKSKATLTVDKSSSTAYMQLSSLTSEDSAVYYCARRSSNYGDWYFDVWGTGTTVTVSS VL: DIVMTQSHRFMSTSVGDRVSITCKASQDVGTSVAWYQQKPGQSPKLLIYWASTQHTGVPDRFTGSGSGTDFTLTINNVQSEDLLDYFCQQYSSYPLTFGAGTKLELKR" reading=-401

Turning to the following binder.
Exam item: Requested field: competition rate. Item: S009-F2.58.8 (antibody, human IgG1, kappa, V domains shown, human-murine chimeric antibody, human IgG1/kappa constant regions) VH: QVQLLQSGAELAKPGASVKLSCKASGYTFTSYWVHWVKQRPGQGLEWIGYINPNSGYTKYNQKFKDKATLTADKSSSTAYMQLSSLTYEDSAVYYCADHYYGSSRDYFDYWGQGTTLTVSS VL: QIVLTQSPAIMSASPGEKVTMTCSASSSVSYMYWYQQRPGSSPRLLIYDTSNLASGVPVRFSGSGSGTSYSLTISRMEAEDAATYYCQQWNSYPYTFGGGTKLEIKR
Marked response: -133
